Cited source for all entries: ChEMBL document CHEMBL3856218

- assay system: Sodium-dependent serotonin transporter (Homo sapiens)
- Sequence (P31645 whole entry): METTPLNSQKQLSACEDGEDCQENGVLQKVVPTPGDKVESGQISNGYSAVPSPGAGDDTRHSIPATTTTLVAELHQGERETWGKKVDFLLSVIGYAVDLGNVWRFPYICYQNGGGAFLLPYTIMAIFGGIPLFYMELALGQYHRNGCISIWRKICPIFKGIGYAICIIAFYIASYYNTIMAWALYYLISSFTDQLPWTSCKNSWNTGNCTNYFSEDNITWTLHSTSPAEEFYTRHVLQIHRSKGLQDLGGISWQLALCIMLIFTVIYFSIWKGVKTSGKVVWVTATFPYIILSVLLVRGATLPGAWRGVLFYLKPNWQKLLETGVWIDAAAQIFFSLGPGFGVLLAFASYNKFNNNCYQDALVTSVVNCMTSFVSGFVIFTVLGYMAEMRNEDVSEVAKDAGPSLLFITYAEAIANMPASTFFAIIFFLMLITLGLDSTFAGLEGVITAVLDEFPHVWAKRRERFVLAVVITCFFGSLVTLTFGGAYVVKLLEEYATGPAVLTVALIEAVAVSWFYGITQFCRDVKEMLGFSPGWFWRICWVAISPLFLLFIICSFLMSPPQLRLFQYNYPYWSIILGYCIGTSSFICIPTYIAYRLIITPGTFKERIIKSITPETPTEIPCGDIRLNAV
- experimental protocol: Inhibition of serotonin transporter (unknown origin) assessed as suppression of synaptosomal uptake of serotonin
pIC50: −log10 of the molar value.
measure: pIC50

molecule: CCC(C)C(=O)[C@]12C(=O)[C@](CC=C(C)C)(C[C@H](CC=C(C)C)[C@@]1(C)CCC=C(C)C)C(=O)C(CC=C(C)C)=C2O (stereo partly specified)
experimental value: 5.70

###

- assay system: Sodium-dependent noradrenaline transporter (Homo sapiens)
- Sequence (P23975 whole entry): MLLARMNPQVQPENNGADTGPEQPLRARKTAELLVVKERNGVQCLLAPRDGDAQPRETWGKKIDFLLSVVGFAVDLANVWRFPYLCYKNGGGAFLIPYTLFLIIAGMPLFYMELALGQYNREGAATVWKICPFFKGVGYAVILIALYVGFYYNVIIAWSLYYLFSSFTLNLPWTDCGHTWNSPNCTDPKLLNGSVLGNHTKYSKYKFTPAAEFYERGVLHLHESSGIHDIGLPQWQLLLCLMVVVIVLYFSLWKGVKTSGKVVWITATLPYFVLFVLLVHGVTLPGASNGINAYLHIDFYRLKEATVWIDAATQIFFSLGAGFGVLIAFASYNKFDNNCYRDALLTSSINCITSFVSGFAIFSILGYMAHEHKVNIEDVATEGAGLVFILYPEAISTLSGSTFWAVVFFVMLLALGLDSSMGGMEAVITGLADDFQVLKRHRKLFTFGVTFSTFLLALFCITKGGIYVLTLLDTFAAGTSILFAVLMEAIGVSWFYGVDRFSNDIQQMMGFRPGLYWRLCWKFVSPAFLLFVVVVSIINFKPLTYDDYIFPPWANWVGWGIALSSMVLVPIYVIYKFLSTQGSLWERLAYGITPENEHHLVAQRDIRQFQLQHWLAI
- experimental protocol: Inhibition of norepinephrine transporter (unknown origin) assessed as suppression of synaptosomal uptake of norepinephrine
Measured IC50 values are reported for all entries that follow.
measure: IC50

compound: CC(C)=CCC[C@]1(C)[C@@H](CC=C(C)C)C[C@]2(CC=C(C)C)C(=O)C(CC=C(C)C)=C(O)[C@@]1(C(=O)C(C)C)C2=O
assay system: Sodium-dependent noradrenaline transporter (Homo sapiens)
experimental value: 2 µM
--
compound: CCC(C)C(=O)[C@]12C(=O)[C@](CC=C(C)C)(C[C@H](CC=C(C)C)[C@@]1(C)CCC=C(C)C)C(=O)C(CC=C(C)C)=C2O (some centres not stated) [ADHYPERFORIN]
assay system: Sodium-dependent noradrenaline transporter (Homo sapiens)
experimental value: 2 µM
